Biological target: HPK full length, T165E S171E (Homo sapiens (Human), UniProt Q92918, S171E/T165E)
Sequence (Q92918 whole entry T165E/S171E, looked up): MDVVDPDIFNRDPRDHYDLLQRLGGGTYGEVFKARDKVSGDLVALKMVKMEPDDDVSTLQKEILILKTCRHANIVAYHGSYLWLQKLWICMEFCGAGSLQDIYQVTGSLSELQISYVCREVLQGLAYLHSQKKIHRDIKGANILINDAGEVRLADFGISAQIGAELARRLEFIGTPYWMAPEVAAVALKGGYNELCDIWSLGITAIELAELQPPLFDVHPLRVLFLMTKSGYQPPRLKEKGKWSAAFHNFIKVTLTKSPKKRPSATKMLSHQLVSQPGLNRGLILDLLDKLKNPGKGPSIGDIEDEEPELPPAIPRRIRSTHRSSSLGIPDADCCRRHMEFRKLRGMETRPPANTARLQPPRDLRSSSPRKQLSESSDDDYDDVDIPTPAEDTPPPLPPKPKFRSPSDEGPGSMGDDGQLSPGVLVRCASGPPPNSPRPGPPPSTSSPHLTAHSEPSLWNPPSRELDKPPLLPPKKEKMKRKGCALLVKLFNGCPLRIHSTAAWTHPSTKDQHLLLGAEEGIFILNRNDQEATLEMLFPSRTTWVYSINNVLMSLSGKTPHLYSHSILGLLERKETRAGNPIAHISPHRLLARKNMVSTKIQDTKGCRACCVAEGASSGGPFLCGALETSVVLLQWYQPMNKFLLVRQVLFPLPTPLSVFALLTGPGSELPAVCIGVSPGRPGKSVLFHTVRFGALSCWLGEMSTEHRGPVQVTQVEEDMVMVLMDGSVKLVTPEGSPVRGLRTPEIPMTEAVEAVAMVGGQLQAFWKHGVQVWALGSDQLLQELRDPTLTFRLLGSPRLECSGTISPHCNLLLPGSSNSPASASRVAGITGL
Test: HPK1-FL HTRF enzymatic assay ("HTRF")
Format: biochemical
Conditions: ATP 1 mM, read-out: HPK1 Ki
Counter-ions that a name gives are not always drawn.
quantityName: Ki (nM)
// note: answer is a bare numeric in nM

Cc1c(-c2cc3cc(NC(=O)OC4CN(S(C)(=O)=O)C4)ncc3c(N)c2F)cnc2c1NCCO2: 0.014
Cc1c(-c2cc3cc(NC(=O)O[C@@H]4CCCNC4)ncc3c(N)c2F)cnc2c1NCCO2 (single isomer, unassigned) [Compound 408b]: 0.069

Moving on to the next compound.
Indicate the recorded Ki value for this compound: Cc1c(-c2cc(N)c3cnc(NC(=O)O[C@H]4COC[C@@H]4C)cc3c2)cnc2c1NCCO2 (single isomer, unassigned) [Compound 556a, hydrochloride]
0.032

* * *

Biological target: HPK full length, T165E S171E (Homo sapiens (Human), UniProt Q92918, S171E/T165E)
Assay: HPK1-FL HTRF enzymatic assay ("HTRF")
Assay type: biochemical
Conditions: ATP 1 mM, read-out: HPK1 Ki
Attribute: pKi
Please report pKi as the negative decimal logarithm of the molar concentration, giving only the number.

CO[C@H]1COC[C@H]1NC(=O)Nc1cc2cc(-c3cnc4c(c3C)NCCO4)c(F)c(N)c2cn1 (single isomer, unassigned) [Compound 723b]: 10.54

Supply recorded pKi for Cc1c(-c2cc3cc(NC(=O)OC4CCN(CC(F)(F)F)CC4)ncc3c(N)c2F)cnc2c1NCCO2 here.
10.64

Return reported pKi. Input compound: Cc1c(-c2cc3cc(NC(=O)O[C@H]4CCN(CC(F)F)C[C@H]4F)ncc3c(N)c2F)cnc2c1NCCO2 (single isomer, unassigned) [Compound 566b]
9.83

Look up pKi of CC(=O)N1CC[C@@H](OC(=O)Nc2cc3cc(-c4cnc5c(c4C)NCCO5)c(F)c(N)c3cn2)[C@@H](F)C1 (single isomer, unassigned) [Compound 437b] and report it.
10.27

Return value of pKi for input Cc1c(-c2cc3cc(NC(=O)OCC4(F)CN(C)C4)ncc3c(N)c2F)cnc2c1NCCO2 , no commentary.
9.89

Indicate its recorded pKi; the compound in question is Cc1c(-c2cc3cc(NC(=O)O[C@@H]4CO[C@]5(CCN(C)C5)C4)ncc3c(N)c2F)cnc2c1NCCO2 (single isomer, unassigned) [Compound 467c]
10.57

Consider the compound Cc1c(-c2cc3cc(NC(=O)O[C@@H]4CCCN(C)C4)ncc3c(N)c2F)cnc2c1NCCO2 [Compound 416a] and give its recorded pKi.
10.12

Report pKi for Cc1c(-c2cc3cc(NC(=O)OC4CC5COCC(C4)N5C)ncc3c(N)c2F)cnc2c1NCCO2 (centres unmarked)
9.40

Tell me pKi reported for CO[C@@H]1COC[C@H]1OC(=O)Nc1cc2cc(-c3cnc4c(c3C)NCCO4)c(F)c(N)c2cn1 (single isomer, unassigned) [Compound 546b]
10.29

Report pKi, nothing else, for this compound: Cc1c(-c2cc3cc(NC(=O)OC4CN(C(=O)[C@@H]5C[C@H]5F)C4)ncc3c(N)c2F)cnc2c1NCCO2 (single isomer, unassigned) [Compound 545b]
10.74

Return value of pKi for input Cc1c(-c2cc3cc(NC(=O)N4CC(C)(O)C4)ncc3c(N)c2F)cnc2c1NCCO2 , no commentary.
9.69

Given the compound Cc1c(-c2cc3cc(NC(=O)O[C@@H]4Cc5ncnn5C4)ncc3c(N)c2F)cnc2c1NCCO2 (single isomer, unassigned) [Compound 578a] , write its reported pKi.
10.55

Tell me pKi reported for CC[C@]1(O)C[C@H](OC(=O)Nc2cc3cc(-c4cnc5c(c4C)NCCO5)c(F)c(N)c3cn2)C1 [Compound 512a]
10.82

// fetch pKi given entry Cc1c(-c2cc3cc(NC(=O)OC4CCOC4)ncc3c(N)c2F)cnc2c1NCCO2 (racemic)
10.64

In one line, give reported pKi of the entry Cc1c(-c2cc3cc(NC(=O)O[C@@H]4CC[C@@H]4O)ncc3c(N)c2F)cnc2c1NCCO2 [Compound 542b] .
10.11

Entry Cc1c(N)cncc1-c1cc2cc(NC(=O)O[C@H]3C[C@@H](C#N)C3)ncc2c(N)c1F [Compound 534a] needs its pKi filled in; supply it.
9.85

Dear colleague, please send me the reported pKi for Cc1c(-c2cc3cc(NC(=O)O[C@H]4CCN(C)C4)ncc3c(N)c2F)cnc2c1NCCO2 [Compound 411a] when you can.
9.60

Could you please provide reported pKi for Cc1c(-c2cc3cc(NC(=O)O[C@]4(C)C[C@H](O)C4)ncc3c(N)c2F)cnc2c1NCCO2 [Compound 554a] ? Thanks!
9.60

Please give measured pKi of the following entry: Cc1c(-c2cc3cc(NC(=O)O[C@H]4COC[C@H]4F)ncc3c(N)c2F)cnc2c1NCCO2 [Compound 477c]
9.82

Identify measured pKi associated with Cc1c(-c2cc3cc(NC(=O)O[C@@H]4CN(C)C[C@H]4C)ncc3c(N)c2F)cnc2c1NCCO2 (single isomer, unassigned) [Compound 442c]
9.81

* * *

Ki values for the compounds below.
Molecular target: HPK full length, T165E S171E (Homo sapiens (Human), UniProt Q92918, S171E/T165E)
Assay: HPK1-FL HTRF enzymatic assay ("HTRF")
Type: biochemical
Details: ATP 1 mM, read-out: HPK1 Ki
Method: Assay Principle: HPK-FL enzyme phosphorylates Biotin-SLP-76 substrate in the presence of ATP at […] and varying concentrations of test compound. Product is detected by FRET using Eu-anti-pSLP76 Ab and SA-XL665. Also see www.cisbio.com/HTRF for additional HTRF technology information. Instrumentation: Echo555 compound dispenser; Agilent Bravo; Perkin Elmer Envision. To a 384 well Proxiplate with 80 nL compound or DMSO spotted on was added 4 μl/well kinase mix. […]
Enter your answer as a number in nM; do not include the unit.

Cc1c(-c2cc3cc(NC(=O)OC4CCNCC4)ncc3c(N)c2F)cnc2c1NCCO2: 0.03

# context switch: different compound, same Ki
Fill in Ki for record Cc1c(-c2cc3cc(NC(=O)O[C@@H]4CCOC4)ncc3c(N)c2F)cnc2c1NCC(CO)C2 (mixture of isomers) [Compound 581a]
0.43

* * *

The reader will find reported pKi values listed item by item below.
Target: HPK full length, T165E S171E (Homo sapiens (Human), UniProt Q92918, S171E/T165E)
Assay: HPK1-FL HTRF enzymatic assay ("HTRF")
Assay type: biochemical
Conditions: ATP 1 mM, read-out: HPK1 Ki
Recall that pKi is obtained by taking minus log10 of the concentration measured in molar.

Would you please look over these solved cases?
CN[C@@H]1CCCC[C@H]1OC(=O)Nc1cc2cc(-c3cnc4c(c3C)NCCO4)c(F)c(N)c2cn1 (single isomer, unassigned) [Compound 415b]: 7.80
Cc1c(-c2cc3cc(NC(=O)OC4CN(C5CC5)C4)ncc3c(N)c2F)cnc2c1NCCO2: 10.68
Cc1c(-c2cc3cc(NC(=O)O[C@H]4CCNC4)ncc3c(N)c2F)cnc2c1NCCO2 (single isomer, unassigned) [Compound 405b]: 9.80
Cc1c(-c2cc3cc(NC(=O)O[C@H]4CCCN(C)C4)ncc3c(N)c2F)cnc2c1NCCO2 [Compound 416b]: 10.12
Cc1c(-c2cc3cc(NC(=O)O[C@H]4CN(C)C[C@@H]4C)ncc3c(N)c2F)cnc2c1NCCO2 (single isomer, unassigned) [Compound 442d]: 10.34

Could you now consider this next molecule?
Look up and state reported pKi for Cc1c(-c2cc3cc(NC(=O)O[C@H]4Cc5ncnn5C4)ncc3c(N)c2F)cnc2c1NCCO2 (single isomer, unassigned) [Compound 578b]
9.82

* * *

Molecular target: HPK full length, T165E S171E (Homo sapiens (Human), UniProt Q92918, S171E/T165E)
Experiment: HPK1-FL HTRF enzymatic assay ("HTRF")
Type: biochemical
Settings: ATP 1 mM, read-out: HPK1 Ki
pKi: −log10 of the molar value. Where a name gives a salt, the structure may show the parent alone.
Binary classification by pKi, with 10 as an inclusive lower bound for Y; all other cases are N.

Completed entries (count: 5):
Cc1c(-c2cc3cc(NC(=O)N[C@@H]4CC[C@H]4C#N)ncc3c(N)c2F)cnc2c1NCCO2 (relative stereo) [Compound 712ab]: Y
CNC(=O)Nc1cc2cc(-c3cnc4c(c3C)NCCO4)c(F)c(N)c2cn1 [Compound 704]: Y
Cc1c(-c2cc3cc(NC(=O)O[C@H]4[C@@H]5CN(C)C[C@@H]54)ncc3c(N)c2F)cnc2c1NCCO2 [Compound 432a]: Y
Cc1c(-c2cc3cc(NC(=O)O[C@H](C)CO)ncc3c(N)c2F)cnc2c1NCCO2 (single isomer, unassigned) [Compound 530a]: N
CN[C@H]1CCCC[C@@H]1OC(=O)Nc1cc2cc(-c3cnc4c(c3C)NCCO4)c(F)c(N)c2cn1 (single isomer, unassigned) [Compound 415a]: N

Is pKi at least 10? Consider Cc1c(-c2cc3cc(NC(=O)O[C@H]4C[C@H](n5ccnc5)C4)ncc3c(N)c2F)cnc2c1NCCO2 [Compound 514a, hydrochloride]
Y

Item Cc1c(-c2cc3cc(NC(=O)O[C@H]4C[C@](C)(O)[C@@H]4C)ncc3c(N)c2F)cnc2c1NCCO2 [Compound 526c] with pKi of 10 or above?
Y

Test whether the compound Cc1c(-c2cc3cc(NC(=O)O[C@@H](C)CN(C)C)ncc3c(N)c2F)cnc2c1NCCO2 (single isomer, unassigned) [Compound 523b] records pKi of 10 or higher.
N

Item CC[C@H]1COC[C@@H]1OC(=O)Nc1cc2cc(-c3cnc4c(c3C)NCCO4)c(F)c(N)c2cn1 (single isomer, unassigned) [Compound 515b] with pKi of 10 or above?
Y

# bool: pKi of Cc1c(-c2cc3cc(NC(=O)O[C@H]4CCN(C5COC5)C[C@H]4F)ncc3c(N)c2F)cnc2c1NCCO2 [Compound 445d] >= 10
Y

Does the reported pKi for Cc1c(-c2cc3cc(NC(=O)N[C@H]4CCN(C)C[C@H]4F)ncc3c(N)c2F)cnc2c1NCCO2 (single isomer, unassigned) [Compound 703c] fall at or above the 10 mark?
Y

Does Cc1c(-c2cc3cc(NC(=O)O[C@@H]4COC[C@H]4C4CC4)ncc3c(N)c2F)cnc2c1NCCO2 (single isomer, unassigned) [Compound 516b] have a reported pKi of at least 10?
Y
